Recorded measurements of cell viability, one per entry
# Test system: Vero E6
# procedure_details: cell viability relative to DMSO; higher = less toxic
# assay_setup: 72 h; 100 nM
Where a name gives a salt, the structure may show the parent alone.

{"molecule": "COc1cc(N2CCN(C)CC2)ccc1Nc1nccc(-c2cn(C)c3cnccc23)n1 [AZ191]", "measurement_unit": "%", "cell viability": 98.5}
{"molecule": "CC(C)OC(=O)C1=CN(C(=O)c2ccc(F)c(F)c2)CC(C)(C)c2c1[nH]c1ccccc21", "measurement_unit": "%", "cell viability": 95.4}
{"molecule": "Cc1ncc(-c2csc(N=C(N)N)n2)[nH]1 [zaltidine]", "measurement_unit": "%", "cell viability": 87.3}
{"molecule": "O=C(O)c1ccc2c(c1)nc(Nc1cccc(Cl)c1)c1ccncc12 [CX-4945]", "measurement_unit": "%", "cell viability": 101}
{"molecule": "Cc1nc2sccn2c(=O)c1CCN1CCC(=C(c2ccccc2)c2ccc(F)cc2)CC1", "measurement_unit": "%", "cell viability": 107}
{"molecule": "O=C(O)CNC(=O)c1nc(Cl)c2ccccc2c1O [FG-2216]", "measurement_unit": "%", "cell viability": 104}
{"molecule": "COc1cc2c(=O)c(-c3ccc(O)cc3)coc2cc1O [glycitein]", "measurement_unit": "%", "cell viability": 98.2}
{"molecule": "O=C(Oc1ccc(Br)cc1)N1CCN2CCC1CC2", "measurement_unit": "%", "cell viability": 93.5}
{"molecule": "C[C@@H]([C@@H](O)c1ccc(O)cc1)N1CCC(O)(c2ccccc2)CC1 [traxoprodil]", "measurement_unit": "%", "cell viability": 95.7}
{"molecule": "Cc1ccc2c(Cl)cc(Cl)c(O)c2n1 [chlorquinaldol]", "measurement_unit": "%", "cell viability": 99.2}
{"molecule": "O=C(OCCN1CCOCC1)c1cccnc1Nc1cccc(C(F)(F)F)c1 [morniflumate]", "measurement_unit": "%", "cell viability": 102}
{"molecule": "CC(=O)N1N=C(c2ccc(N)cc2)c2cc3c(cc2C[C@H]1C)OCO3 [talampanel]", "measurement_unit": "%", "cell viability": 95.9}
{"molecule": "CCOC(=O)c1c(CSc2ccccc2)n(C)c2cc(Br)c(O)c(CN(C)C)c12 [arbidol]", "measurement_unit": "%", "cell viability": 92}
{"molecule": "CCc1cc(-c2[nH]nc(C)c2-c2ccc3c(c2)OCCO3)c(O)cc1O", "measurement_unit": "%", "cell viability": 101}
{"molecule": "COC(=O)Nc1nc2cc(C(=O)c3ccccc3)ccc2[nH]1 [mebendazole]", "measurement_unit": "%", "cell viability": 102}
{"molecule": "CCCCCCCCCCCCCCCC[n+]1ccccc1 [cetylpyridinium]", "measurement_unit": "%", "cell viability": 98.1}
{"molecule": "CCC1(c2ccccc2)C(=O)N(COC)C(=O)N(COC)C1=O [eterobarb]", "measurement_unit": "%", "cell viability": 102}
{"molecule": "N=C(N)SCCc1c[nH]cn1 [imetit]", "measurement_unit": "%", "cell viability": 103}
{"molecule": "Cn1nc(C(C)(C)C)cc1C(=O)N[C@@H](Cc1cccc(Cl)c1)C(=O)NCC#N [cathepsin-inhibitor-1]", "measurement_unit": "%", "cell viability": 102}
{"molecule": "COC(=O)Nc1nc2cc(SC(C)C)ccc2[nH]1 [methiazole]", "measurement_unit": "%", "cell viability": 92.6}
{"molecule": "O=[N+]([O-])/N=C1\\NCCN1Cc1ccc(Cl)nc1 [imidacloprid]", "measurement_unit": "%", "cell viability": 96.7}
{"molecule": "O=C(NOCC1CC1)c1ccc(F)c(F)c1Nc1ccc(I)cc1Cl", "measurement_unit": "%", "cell viability": 84.4}
{"molecule": "O=C(NCCO)c1cccc(-c2cc(Nc3ccc(OC(F)(F)F)cc3)ncn2)c1 [GNF-5]", "measurement_unit": "%", "cell viability": 94.6}
{"molecule": "CC(=O)[C@H]1CC[C@H]2[C@@H]3CC=C4C[C@@H](O)CC[C@]4(C)[C@H]3CC[C@]12C [pregnenolone]", "measurement_unit": "%", "cell viability": 99.5}
{"molecule": "O=C(O)CC1CC(c2ccccc2)=NO1 (stereo not drawn) [VGX-1027]", "measurement_unit": "%", "cell viability": 97.6}
{"molecule": "COc1ccc([C@]2(C#N)CC[C@@H](C(=O)O)CC2)cc1OC1CCCC1 [cilomilast]", "measurement_unit": "%", "cell viability": 89.8}
{"molecule": "CC(C)[C@@H](C(=O)Nc1nccs1)c1ccc(Cl)cc1 [4-CMTB]", "measurement_unit": "%", "cell viability": 98}
{"molecule": "CC(c1cc2ccccc2s1)N(O)C(N)=O (stereo not drawn) [zileuton]", "measurement_unit": "%", "cell viability": 107}
{"molecule": "COC(=O)c1cc(OC)c2c(c1-c1c(CO)cc(OC)c3c1OCO3)OCO2 [bicyclol]", "measurement_unit": "%", "cell viability": 104}
{"molecule": "CC(C)(O)C(=O)N1CCN(c2ccc(C(F)(F)F)c(C3=C(c4c[nH]c5ccccc45)C(=O)NC3=O)c2)CC1", "measurement_unit": "%", "cell viability": 96.9}
{"molecule": "CO/N=C(\\C(=O)N[C@@H]1C(=O)N2C(C(=O)O)=C(CSC(=O)c3ccco3)CS[C@H]12)c1csc(N)n1 [CEFTIOFUR HYDROCHLORIDE]", "measurement_unit": "%", "cell viability": 93.9}
{"molecule": "CCCCOc1cc(C(=O)NCCN(CC)CC)c2ccccc2n1 [cinchocaine]", "measurement_unit": "%", "cell viability": 97.8}
{"molecule": "CC(C)CCC[C@@H](C)[C@H]1CC[C@H]2[C@@H]3CCC4=CC(=NO)CC[C@]4(C)[C@H]3CC[C@]12C [olesoxime]", "measurement_unit": "%", "cell viability": 96.5}
{"molecule": "Cc1cc(C(=O)N2Cc3cnn(C)c3Nc3ccccc32)ccc1CNC(=O)N1CCC[C@H]1C(=S)N1CCCN(C)CC1 [TC-OT-39]", "measurement_unit": "%", "cell viability": 94.4}
{"molecule": "COc1cccc(-c2cc(F)ccc2[C@H]2Cc3nc(N)nc(C)c3C(=O)N2)n1 [NVP-HSP990]", "measurement_unit": "%", "cell viability": 47.3}
{"molecule": "O=c1[nH]nc2c3c(cccc13)N=C(CN1Cc3ccccc3C1)N2 [E7449]", "measurement_unit": "%", "cell viability": 96.3}
{"molecule": "Cc1ccc(Nc2ncc3c(n2)N(C)C(=O)N(c2cc(NC(=O)c4cccc(C(F)(F)F)c4)ccc2C)C3)cn1 [GNF-7]", "measurement_unit": "%", "cell viability": 91}
{"molecule": "CC(C)C[C@@H](N)C1(c2ccc(Cl)cc2)CCC1", "measurement_unit": "%", "cell viability": 100}

====

# System: Vero E6
# procedure_details: cell viability relative to DMSO; higher = less toxic
# assay_setup: 72 h; 1 nM

{"substance_smiles": "Nc1nc(=O)c(Br)c(-c2ccccc2)[nH]1", "study_system": "Vero E6", "cell viability": "94.8%"}
{"substance_smiles": "COc1cccc(-c2cc(F)ccc2[C@H]2Cc3nc(N)nc(C)c3C(=O)N2)n1", "study_system": "Vero E6", "cell viability": "101%"}
{"substance_smiles": "COC[C@H]1OC(=O)c2coc3c2[C@@]1(C)C1=C(C3=O)[C@@H]2CCC(=O)[C@@]2(C)C[C@H]1OC(C)=O", "study_system": "Vero E6", "cell viability": "106%"}
{"substance_smiles": "Cc1cn2nc([C@@H]3CCCCN3C(=O)c3cc(Cl)ccc3NS(C)(=O)=O)cc2nc1N1CC[C@H](N)C1", "study_system": "Vero E6", "cell viability": "98.8%"}

====

Recorded measurements of drug sensitivity score, one per entry
# System: Vero E6
# procedure_details: drug sensitivity score (DSS) for viability; higher = more toxic; extreme values may be limits of the assay
# assay_setup: 72 h

{"compound": "CCCCn1ccc(N2CCC(c3ccccc3)CC2)c(Cl)c1=O", "study_system": "Vero E6", "drug sensitivity score": 0}
{"compound": "COc1cc(NC(=O)Nc2cccc(CNC(=O)O[C@H]3CCOC3)c2)ccc1-c1cnco1 [merimepodib]", "study_system": "Vero E6", "drug sensitivity score": 0}
{"compound": "Nc1ccc(C(=O)Oc2ccccc2)c(O)c1 [phenyl-aminosalicylate]", "study_system": "Vero E6", "drug sensitivity score": 0}
{"compound": "CC(C)(O)C(=O)N1CCN(c2ccc(C(F)(F)F)c(C3=C(c4c[nH]c5ccccc45)C(=O)NC3=O)c2)CC1", "study_system": "Vero E6", "drug sensitivity score": 3.6}
{"compound": "CCn1cc(-c2cccc(C(F)(F)F)c2)c2sc(C(=N)NC3CCS(=O)(=O)CC3)cc2c1=O [I-BRD9]", "study_system": "Vero E6", "drug sensitivity score": 0}
